# study-target: hCA XII (Homo sapiens, UniProt O43570)
# Sequence (O43570 25-354): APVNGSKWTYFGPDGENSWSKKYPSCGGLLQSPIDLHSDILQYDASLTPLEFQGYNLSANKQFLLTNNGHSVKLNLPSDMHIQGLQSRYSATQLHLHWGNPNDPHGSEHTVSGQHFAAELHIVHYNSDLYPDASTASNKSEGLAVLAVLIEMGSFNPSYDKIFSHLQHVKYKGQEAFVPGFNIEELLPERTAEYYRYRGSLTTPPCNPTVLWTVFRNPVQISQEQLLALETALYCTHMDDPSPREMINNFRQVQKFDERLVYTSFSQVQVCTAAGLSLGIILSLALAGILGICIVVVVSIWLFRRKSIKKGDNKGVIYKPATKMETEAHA
Listed here: items and their measured Ki.
Hi! Could you send only the number? It should be in nM, unit omitted.

Record excerpt, results attached:
1) Cc1ccc(/C=C/C(=O)c2ccc(-c3cc4ccccc4oc3=O)nc2C)cc1 :: 8200
2) Cc1nc(-c2cc3ccccc3oc2=O)ccc1C(=O)/C=C/c1ccc(F)cc1 :: 2700
3) Cc1nc(-c2cc3ccccc3oc2=O)ccc1C(=O)/C=C/c1ccc2c(c1)OCO2 :: 6800
4) Cc1nc(-c2cc3ccccc3oc2=O)ccc1C(=O)/C=C/c1ccc(N2CCOCC2)cc1 :: 1800
5) Cc1nc(-c2cc3ccccc3oc2=O)ccc1C(=O)/C=C/c1ccccc1 :: 5100

Q: I am curious: what Ki value has been reported for Cc1nc(-c2cc3ccccc3oc2=O)ccc1C(=O)/C=C/c1ccc(N(C)C)cc1 ?
Result: 6700

Q: Which Ki is listed for Cc1nc(-c2cc3ccccc3oc2=O)ccc1C(=O)/C=C/c1ccc(Cl)cc1 ?
Result: 1900

Q: // query Ki value for entry Cc1ccc(/C=C/C(=O)c2ccc(-c3cc4ccccc4oc3=O)nc2C)o1
Result: 1900

Q: Field request: Ki | item: Cc1nc(-c2cc3ccccc3oc2=O)ccc1C(=O)/C=C/c1ccccn1
Result: 920
